# testSummary: Primary qHTS to identify inhibitors of SARS-CoV-2 cell entry (AID 1645846)
# measurementParameters: SARS-CoV-2 pseudovirus cell entry assay, luminescence; at 57.1 µM (top of the series) unless noted
Records with an inconclusive call do not appear.
Tick Fulfilled if activity change, negative = inhibition is -20% or greater. Tick Not fulfilled if activity change, negative = inhibition is less than -20%.

Enquiry: Reported activity change, negative = inhibition at or above -20%? Cc1cc(O[C@@H](CCC(F)(F)F)c2ccc(C(=O)NCCC(=O)O)cc2)cc(C)c1-c1ccc(C(C)(C)C)cc1
Return: Fulfilled

Enquiry: Reported activity change, negative = inhibition at or above -20%? C=C1CC[C@H](O)C/C1=C\C=C1/CCC[C@]2(C)[C@@H]([C@H](C)CC[C@H](O)C(C)(C)O)CC[C@@H]12
Return: Fulfilled

Enquiry: Reported activity change, negative = inhibition at or above -20%? Nc1cccc2c1CN([C@H]1CCC(=O)NC1=O)C2=O
Return: Fulfilled

Enquiry: Reported activity change, negative = inhibition at or above -20%? CCCCCCCCN=C(N)NC(N)=NCc1ccc(Cl)c(Cl)c1
Return: Fulfilled

Enquiry: Reported activity change, negative = inhibition at or above -20%? CO/N=C(\C(=O)N[C@@H]1C(=O)N2C(C(=O)O)=C(CSc3nnnn3C)CS[C@H]12)c1csc(N)n1
Return: Not fulfilled

Enquiry: Reported activity change, negative = inhibition at or above -20%? CC(C)(CO)[C@@H](O)C(=O)NCCC(=O)NCCSSCCNC(=O)CCNC(=O)[C@H](O)C(C)(C)CO
Return: Fulfilled

Enquiry: Reported activity change, negative = inhibition at or above -20%? O=c1c(-c2ccc(O)cc2)coc2c([C@@H]3O[C@H](CO)[C@@H](O)[C@H](O)[C@H]3O)c(O)ccc12
Return: Not fulfilled

Enquiry: Reported activity change, negative = inhibition at or above -20%? Cc1[nH]cnc1C[C@H]1CCc2c(C)c3ccccc3n2C1=O
Return: Not fulfilled

Enquiry: Reported activity change, negative = inhibition at or above -20%? O=C(NCC(=O)N1CC[C@H](NC2CCC(O)(c3ccc(-c4ncccn4)cn3)CC2)C1)c1cccc(C(F)(F)F)c1 (stereo partly drawn)
Return: Not fulfilled
